This listing pairs compounds with measured z-score.
# protocol description: osmotic lysis modulators in infected erythrocytes, primary screen, PSAC antagonist project, cell-based, P. falciparum Indochina, OD700, 3 h (AID 1156)
# assay context: higher = more signal, called active from +8 up or from −8 down
endpoint name: z-score

{"compound": "CN1C=C(C(=O)OCCS(C)(=O)=O)C(C(=O)OCCS(C)(=O)=O)=CC(CCCO)=CC1c1ccc(CN2CCCC2)cc1 (stereo not drawn)", "assay value": -0.203}
{"compound": "COCCOC(=O)N1C(=O)[C@@]2(c3cc(C#CC4=CCCCC4)ccc31)[C@H](C(=O)N1CCN(c3ncccn3)CC1)[C@H]1C(=O)O[C@H](c3ccccc3)[C@H](c3ccccc3)N1[C@@H]2c1ccccc1OCCO", "assay value": -0.634}
{"compound": "CC(C)C[C@@H]1NC(=O)[C@H]2C[C@@H](C(=O)NCCCCCNC(=O)CS)[C@@H](c3ccc(O)cc3)N2C1=O", "assay value": 0.256}

---

# protocol description: CREB reporter modulators without forskolin, primary screen, cell-based, PC12, CRE-LacZ reporter, unstimulated (AID 1145)
# assay context: no forskolin, luminescence, 4.5 h, higher = more signal, called active from +8 up or from −8 down
endpoint name: z-score

{"compound": "C=C(/C(=C/C[C@@H](OC(C)=O)c1ccccc1OCCO)c1cc(C(=O)OC)ccc1OC)C(C)C", "endpoint name": "z-score", "assay value": 16.2}
{"compound": "COc1ccc(CCNC(=O)[C@@]2(Sc3ccc(C)cc3)CC(=O)N(Cc3cc(C(F)(F)F)cc(C(F)(F)F)c3)[C@@H]2c2ccc(CO)cc2)cc1", "endpoint name": "z-score", "assay value": 0.495}
{"compound": "COC(=O)[C@H](Cc1ccc(O)cc1)N1CC2=CCCC=C[C@@H]2[C@H]1[C@H](O)Cc1ccccc1", "endpoint name": "z-score", "assay value": 2.13}
{"compound": "CO[C@H]1O[C@H](CO)[C@@H](OC(=O)Nc2ccc3c(c2)OCO3)[C@@H]2OC(=O)[C@@H](Cc3ccccc3)C/C=C/C[C@H](Cc3ccccc3)C(=O)O[C@@H]12", "endpoint name": "z-score", "assay value": 0.951}
{"compound": "COCCn1c(C(=O)N2CCCC2)cc2c1C[C@H]1CN(C(=O)c3ccccc3)[C@@](Cc3ccccc3)(C(=O)OC)[C@@H]21", "endpoint name": "z-score", "assay value": -0.182}
{"compound": "CCCCN1CC=CC23O[C@@H]4C=CCOC(=O)[C@@H]4[C@H]2C(=O)N(CCO)[C@@H]3C1=O (some centres undefined)", "endpoint name": "z-score", "assay value": 0.0605}
{"compound": "CC(c1ccccc1)C(O)C1C=CC2C(=O)N(c3ccccc3)C(=O)C2N1Nc1ccc(C#N)cc1 (centres undefined)", "endpoint name": "z-score", "assay value": -0.136}
{"compound": "CO[C@H]1O[C@H](CO)[C@@H](OC(=O)Nc2ccccc2)[C@@H]2OC(=O)[C@H](Cc3ccccc3)C/C=C/C[C@@H](Cc3ccccc3)C(=O)O[C@@H]12", "endpoint name": "z-score", "assay value": 0.512}
{"compound": "COc1ccc(C#Cc2ccc3c(c2)[C@]2(C(=O)N3)[C@H](c3ccc(OCCO)cc3)N3[C@H](c4ccccc4)[C@H](c4ccccc4)OC(=O)[C@H]3[C@@H]2C(=O)O)cc1", "endpoint name": "z-score", "assay value": -0.0515}
{"compound": "CC(C)C[C@@H]1NC(=O)[C@@]23C(=O)N[C@@H](Cc4ccccc4)C2[C@H](C)[C@@]2(C)O[C@H]2C3/C=C/C/C=C\\CNC(=O)[C@@H](CC(C)C)NC1=O (some centres undefined)", "endpoint name": "z-score", "assay value": 2.66}
{"compound": "C=CCC(OC(C)=O)[C@@H]1[C@@H](N(Cc2ccc(-c3ccccc3)cc2)C(=O)c2cccc3ccccc23)c2cc(OCCCO)ccc2N1C(=O)c1ccc2ccccc2c1 (some centres undefined)", "endpoint name": "z-score", "assay value": -0.155}
{"compound": "C=C(COC)/C(=C/C[C@@H](OC(C)=O)c1ccccc1OCCO)c1cc(C(=O)OC)ccc1OC", "endpoint name": "z-score", "assay value": 11.4}
{"compound": "COc1ccccc1CN1C(=O)c2ccccc2[C@](Cc2ccccc2I)(C(=O)NCCCN(C)C)[C@@H]1c1ccc(CO)cc1", "endpoint name": "z-score", "assay value": 3.31}
{"compound": "CN(C)C(=O)[C@]1(Cc2ccccc2)N=C(c2ccc(OCCCO)cc2)O[C@@H]1c1ccccc1", "endpoint name": "z-score", "assay value": 1.24}
